- System: HCC1569
- assayProcedure: H1.0 immunofluorescence intensity relative to DMSO (% of DMSO); higher = stronger H1.0 induction, active = 140 or more
- experimentalContext: concentration: 10 µM; 24 h
quantityKind: H1.0 immunofluorescence intensity
Answer with the value's number alone.

Example cases with answers are listed next.
>>> readoutvalue("CCCCCCCC(=O)c1c(O)cc(O)cc1CC(=O)OCC [ethyl (3,5-dihydroxy-2-octanoylphenyl)acetate]")
121
>>> readoutvalue("CN(N=O)C(=O)NC1C(O)OC(CO)C(O)C1O (centres undefined)")
87.6
>>> readoutvalue("CCCCCCCC/C=C\\CCCCCCCC(=O)NCC(=O)O [[(9Z)-9-octadecenoylamino]acetic acid]")
100
>>> readoutvalue("CC(=O)Oc1ccccc1C(=O)O [Acetylsalicylic Acid]")
102
>>> readoutvalue("CC(C)(S)[C@H](N)C(=O)O")
90.8

Param item = CCCCCCCCC(O)C=CC=CC=CC(O)CCCC(=O)O (centres undefined) ; retrieve measured H1.0 immunofluorescence intensity.
104

Need H1.0 immunofluorescence intensity of COc1cc2c(c(OC)c1OC)-c1c(cc3c(c1OC)OCO3)C[C@H](C)[C@@](C)(O)C2 , thanks.
101

Name the recorded H1.0 immunofluorescence intensity for CCCCCC=CCC=CCCCCCCCC(=O)O [Linoleic acid] .
99.3

Suppose we examine the compound Clc1ccc(COC(Cn2ccnc2)c2ccc(Cl)cc2Cl)c(Cl)c1 (centres undefined) ; what H1.0 immunofluorescence intensity value has been reported?
114

###

- Tested on: HCC1569
- assayProcedure: H1.0 immunofluorescence intensity relative to DMSO (% of DMSO); higher = stronger H1.0 induction, active = 140 or more
- experimentalContext: concentration: 10 µM; 24 h
Recorded H1.0 immunofluorescence intensity for the following molecules
Keep the answer to the number alone.

>>> readoutvalue("CCCCCC(O)C=CC1OC(O)CC(O)C1CC=CCCCC(=O)O (configuration not stated)")
97.9

Tell me the measured H1.0 immunofluorescence intensity of O=c1cc(N2CCOCC2)oc2c(-c3ccccc3)cccc12 , please.
155

# input molecule: O=c1c(O)c(-c2ccc(O)c(O)c2)oc2cc(O)ccc12 ; wanted: its H1.0 immunofluorescence intensity
101

# H1.0 immunofluorescence intensity lookup, item O=c1oc2cc(O)ccc2c2oc3cc(O)ccc3c12
94.6

Would you kindly share the measured H1.0 immunofluorescence intensity for COC1C(OC(N)=O)C(O)C(Oc2ccc3c(O)c(NC(=O)c4ccc(O)c(CC=C(C)C)c4)c(=O)oc3c2C)OC1(C)C.[Na+] (configuration not stated) ?
103

Entry N=C1SC(=Cc2ccc(-c3ccc4c(c3)C(=O)NC4=O)o2)C(=O)N1c1ccc(Br)cc1 has what H1.0 immunofluorescence intensity?
277

Any idea what its H1.0 immunofluorescence intensity is? The molecule is CC(=O)N[C@@H](CS)C(=O)O
118

Given the entry O=[N+]([O-])c1ccc(CSc2ncnc3c2ncn3C2OC(CO)C(O)C2O)cc1 (configuration not stated) , report its measured H1.0 immunofluorescence intensity.
80.6

Would you kindly share the measured H1.0 immunofluorescence intensity for COc1ccc2c(c1)c(CC(=O)N1CCOCC1)c(C)n2C(=O)c1ccc(Cl)cc1 ?
104

Which value of H1.0 immunofluorescence intensity has been reported for CCCCCCCCCCCC=CCCCCC(=O)O [6(E)-Octadecenoic acid] in the records?
89.5

Field request: H1.0 immunofluorescence intensity | item: OC1C=CC(Br)C(O)C1O (mixture of isomers) [6-Bromo-4-cyclohexene-1,2,3-triol Mixed Isomers]
112

// lookup H1.0 immunofluorescence intensity for CN=C(NC#N)NCCSCc1nc[nH]c1C
92.1

###

- Tested on: HCC1569
- assayProcedure: cell number relative to DMSO (% of DMSO); higher = more cells (less growth inhibition / toxicity)
- experimentalContext: concentration: 10 µM; 24 h
Threshold check on cell number: at or above 100 gives T, strictly below gives F.

>>> qualitativelabel("Cc1ccc(NC(=O)CCCCCC(=O)Nc2ccccc2N)cc1 [N~1~-(2-aminophenyl)-N~7~-(4-methylphenyl)heptanediamide]")
"F"
>>> qualitativelabel("CNc1cc(NS(=O)(=O)c2ccc(N)cc2)nc(NC)n1.Cl.Cl [Ro 04-6790 dihydrochoride]")
"T"

Assess whether reported cell number for CCC1(O)CC2CN(CCc3c([nH]c4ccccc34)C(C(=O)OC)(c3cc4c(cc3OC)N(C)C3C(O)(C(N)=O)C(O)C5(CC)C=CCN6CCC43C65)C2)C1.O=S(=O)(O)O (stereo not given) [Vindesine sulfate] sits at 100 or higher.
F

For this compound, is measured cell number 100 or higher? CS(=O)c1ccc(-c2nc(-c3ccc(F)cc3)c(-c3ccncc3)[nH]2)cc1.Cl (stereo not given)
F

Can FC(F)(F)c1ccc(CNc2ccc(Cc3c[nH]c4ncccc34)cn2)cc1 be said to have cell number at or above 100?
F

Is it the case that NS(=O)(=O)c1ccc(-n2nc(C(F)(F)F)cc2-c2ccc(Cl)cc2)cc1 has cell number reaching or exceeding 100?
F

###

List of H1.0 immunofluorescence intensity values.
- System: TDF
- assayProcedure: H1.0 immunofluorescence intensity relative to DMSO (% of DMSO); higher = stronger H1.0 induction, active = 120 or more
- experimentalContext: concentration: 10 µM; 24 h
Just the number, please, no unit attached.

>>> readoutvalue("CCC1(O)CC2CN(CCc3c([nH]c4ccccc34)C(C(=O)OC)(c3cc4c(cc3OC)N(C)C3C(O)(C(=O)OC)C(OC(C)=O)C5(CC)C=CCN6CCC43C65)C2)C1.O=S(=O)(O)O (stereo not drawn) [Vinblastine sulfate]")
156
>>> readoutvalue("COc1cc(OC)cc(C(CNc2ncnc3c2ncn3C2OC(CO)C(O)C2O)c2ccccc2C)c1 (stereo not drawn)")
94.5
>>> readoutvalue("CN(C)CCOC(C)(c1ccccc1)c1ccccn1.O=C(O)CCC(=O)O (stereo not drawn) [Doxylamine succinate]")
97.5
>>> readoutvalue("CCC=CCC(O)C=CC=CCC=CCC=CCCCC(=O)O (stereo not drawn)")
98.8
>>> readoutvalue("NCC(O)c1ccc(O)c(O)c1.O=C(O)C(O)C(O)C(=O)O (stereo not drawn) [L(-)-Norepinephrine bitartrate]")
95.8
>>> readoutvalue("CNCCC(Oc1ccc(C(F)(F)F)cc1)c1ccccc1.Cl (stereo not drawn) [Fluoxetine hydrochloride]")
108
>>> readoutvalue("NC(=O)CC[C@H](N)C(=O)O [L-Glutamine]")
91.4

Next item in the queue.
Need H1.0 immunofluorescence intensity, item O=C(O)c1ccccc1Nc1cccc(OCc2ccc3ccccc3n2)c1
91.5

###

- Test system: TDF
- assayProcedure: H1.0 immunofluorescence intensity relative to DMSO (% of DMSO); higher = stronger H1.0 induction, active = 120 or more
- experimentalContext: concentration: 10 µM; 24 h
Hi, to clarify the labels: YES covers H1.0 immunofluorescence intensity from 100 upward, NO covers anything below 100.

The following compounds have reported results that may help.
>>> qualitativelabel("COc1ccc(Nc2nc(N)nc(CN3CCCCC3)n2)cc1")
"NO"
>>> qualitativelabel("Clc1ccc2c(c1)CCc1cccnc1C2=C1CCNCC1")
"YES"

Reported H1.0 immunofluorescence intensity at or above 100? Cc1cnc(Nc2ccc(OCCN3CCCC3)cc2)nc1Nc1cccc(S(=O)(=O)NC(C)(C)C)c1
YES

Determine whether this compound has H1.0 immunofluorescence intensity no lower than 100: COc1ccccc1N1CCN(CCN2C(=O)CC3(CCCC3)CC2=O)CC1.Cl.Cl [BMY 7378 dihydrochloride]
NO

Entry CC(C(=O)O)c1cccc(Oc2ccccc2)c1 (centres undefined) : is its H1.0 immunofluorescence intensity no less than 100?
NO

Hi team, for CCCCCC#CCC#CCC#CCC#CCCCC(=O)O [5,8,11,14-Eicosatetraynoic acid] , is the recorded H1.0 immunofluorescence intensity at or above 100?
NO

Assess whether reported H1.0 immunofluorescence intensity for CCCCCC=CCC=CCC=CC=CC(O)CCCC(=O)O (racemic) sits at 100 or higher.
YES

###

Listed here: items and their measured cell number.
- Tested on: HCC1569
- assayProcedure: cell number relative to DMSO (% of DMSO); higher = more cells (less growth inhibition / toxicity)
- experimentalContext: concentration: 10 µM; 24 h
Hey, just send me the number, nothing else.

Some compounds with known cell number results, for comparison:
>>> readoutvalue("CCCCCC=CCC=CC=CC=CCC(=O)CCCC(=O)O")
99.9
>>> readoutvalue("CCCCCC=CCC=CCC=CC=CC(O)CCCC(=O)O (configuration not stated)")
97
>>> readoutvalue("COc1ccc(C(=O)Nc2sc3c(c2C(N)=O)CCCC3)cc1OC [Flt-3 Inhibitor]")
96.7

Switching to the query record.
Consider the compound shown here: COc1ccc(CCN(C)CCc2ccc(OC)c(OC)c2)cc1OC.Cl [YS-035 hydrochloride] What is its recorded cell number?
99.4

###

// reported cell number per item
- Tested on: HCC1569
- assayProcedure: cell number relative to DMSO (% of DMSO); higher = more cells (less growth inhibition / toxicity)
- experimentalContext: concentration: 10 µM; 24 h

>>> readoutvalue("O=C(O)c1cc(-c2ccc(F)cc2F)ccc1O [Diflunisal]")
102

Look up cell number: C#CC1(O)CCC2C3C(C)CC4=C(CCC(=O)C4)C3CCC21C (centres undefined) [Tibolone]
100

For the molecule shown here, OCC1OC(n2cnc3c(NC4CC5CCC4C5)ncnc32)C(O)C1O (centres undefined) , give the reported cell number.
99.1

Consider the molecule CCC(C)C(O)C(C)C(=O)C(C)C=C(C)CC(C)C1OC(=O)C1CC (centres undefined) [Ebelactone B] and give its measured cell number.
102

Quick one: cell number for CC1(C)C(=O)N(CCN2CCC(C(=O)c3ccc(F)cc3)CC2)c2ccccc21.Cl [LY-310,762 hydrochloride] ?
101

Name the reported cell number value associated with the molecule COc1ccc(C2CC(=O)c3c(O)cc(OC4OC(COC5OC(C)C(O)C(O)C5O)C(O)C(O)C4O)cc3O2)cc1O (centres undefined) [Hesperidine]
107

# cell number lookup, item COC1=C(OC)C(=O)c2ccccc2C1=O [2,3-Dimethoxy-1,4-naphthoquinone]
74.6

# cell number lookup, item CN=C(NC#N)Nc1ccc(C2=NNC(=O)CC2C)cc1 (centres undefined) [Siguazodan]
103

Suppose we examine the molecule COc1c(OCCCCN2CCN(C)CC2)cc(O)c2c(=O)cc(-c3ccccc3)oc12 ; what cell number value has been reported?
25.3

What does the data say about its cell number? Entry: CCN(CC)CCNC(=O)c1ccc(N)cc1.Cl [Procainamide hydrochloride]
98.7

What cell number value was documented for this molecule, OCC1OC(n2cnc3c(NC4CCCC4)nc(Cl)nc32)C(O)C1O (centres undefined) [2-Chloro-N6-cyclopentyladenosine] ?
109

Please give the measured cell number for this molecule: CCCCCC(O)C=CC1C(O)CC(O)C1CC=CCCCC(=O)O (centres undefined) [Prostaglandin F2a]
97.3

What does the data say about its cell number? Entry: CN(C)CCCSc1ccccc1NC(=O)C=Cc1ccccc1 [Cinanserin]
103

Looking for the measured cell number of CC1(C(=O)O)CCC2(C)CCC3(C)C(=CC(=O)C4C5(C)CCC(O)C(C)(C)C5CCC43C)C2C1 (centres undefined) , can you help?
102

Entry O=C(CCCN1CCC(O)(c2cccc(C(F)(F)F)c2)CC1)c1ccc(F)cc1 [Trifluperidol] has what cell number?
100

Which cell number value belongs to CC1=NC(=NNc2ccc(S(=O)(=O)[O-])cc2S(=O)(=O)[O-])C(COP(=O)([O-])[O-])=C(C=O)C1=O.[Na+].[Na+].[Na+].[Na+] ?
102

Quick one: cell number for CN(C)C(N)=NCCCC(N)C(=O)O.Cl (centres undefined) [N^G,N^G-Dimethylarginine hydrochloride] ?
104

Can you share its cell number? I mean this molecule: Cc1ccc(S(=O)(=O)NC(=O)NN2CCCCCC2)cc1 [Tolazamide]
101

State the recorded cell number for this entry: COc1cc(Br)c(S(=O)(=O)Nc2ccc(Cl)c(O[C@@H]3CCN(C)C3)c2)cc1OC
83.2

I am curious: what cell number value has been reported for C=CC(C)(O)CCC1C(=C)CCC2C(C)(C)CCCC12C (centres undefined) [Manool] ?
104

# input molecule: COc1ccccc1N1CCN(CCCNc2c(C)c(=O)n(C)c(=O)n2C)CC1 [Urapidil, 5-Methyl-] ; wanted: its cell number
105

If you can, please state the reported cell number value of O=c1cc(-c2ccc(O)c(O)c2)oc2cc(O)cc(O)c12 [Luteolin] .
74.6

Data request, read-out cell number, for NC(=O)c1ccc2nc(-c3ccc(Oc4ccc(Cl)cc4)cc3)[nH]c2c1 [Chk2 Inhibitor II]
97.4

Record request: cell number value, item CC1(C)CC=C(c2ccccc2)c2cc(/C=C/c3ccc(C(=O)O)cc3)ccc21
99.1
